# TARGET_OF_ASSAY: wild type MLL1 four-member complex (MLL1-4C) (Homo sapiens)
# TEST_PROTOCOL: MLL1 LC-MS Assay
# Assay type: biochemical
# CONDITION_SET: read-out: LCMS
pIC50: −log10 of the molar value.
REPORTED_PROPERTY: pIC50

Sample records with pIC50:
Nc1ncnc2c1ncn2Cc1c(N2CC[C@](N)(C(=O)NC3CC3)C2)ccc2ccoc12: 7.00 to 7.30
Cn1nnnc1[C@@]1(N)CCN(c2cc(Cl)cc(Br)c2Cn2cnc3c(N)ncnc32)C1: > 7.30
NC(=O)CCC1(N)CCN(c2cc(Cl)cc(Br)c2Cn2cnc3c(N)ncnc32)C1 (stereo not shown): < 7.00

May I ask what pIC50 has been recorded for `CCc1cc(-c2cscn2)cc(N2CC[C@](N)(C(=O)NC3CC3)C2)c1Cn1cnc2c(N)ncnc21` ?
7.00 to 7.30

* * *

# TARGET_OF_ASSAY: wild type MLL1 four-member complex (MLL1-4C) (Homo sapiens)
# TEST_PROTOCOL: MLL1 LC-MS Assay
# Assay type: biochemical
# CONDITION_SET: read-out: LCMS
Item-by-item account of IC50

C=CC(=O)N1CCN(C(=O)[C@@]2(N)CCN(c3ccc(F)c(CC)c3Cn3cnc4c(N)ncnc43)C2)CC1 [Example 17]: < 50 nM

May I ask what IC50 has been recorded for Nc1ncnc2c1ncn2Cc1c(CC(F)(F)F)cc(Cl)cc1N1CC[C@](N)(C(=O)NC2CC2)C1 [Example 7] ?
50 to 100 nM

May I ask what IC50 has been recorded for Nc1ncnc2c1ncn2Cc1c(Br)cc(Cl)cc1N1CC[C@](N)(CO)C1 (stereo in doubt) [Example 107] ?
> 100 nM

May I ask what IC50 has been recorded for Nc1ncnc2c1ncn2Cc1c(N2CC[C@](N)(C(=O)NC3CC3)C2)ccc(F)c1CN1CCC(F)(F)C1 [Example 66] ?
< 50 nM

May I ask what IC50 has been recorded for C=Cc1c(F)ccc(N2CCC(N)(C(=O)NC3CC3)C2)c1Cn1cnc2c(N)ncnc21 (stereo not drawn) [Example 9] ?
> 100 nM

May I ask what IC50 has been recorded for COC1CC2(C1)CC2NC(=O)[C@@]1(N)CCN(c2ccc(F)c(C(F)(F)F)c2Cn2cnc3c(N)ncnc32)C1 (stereo partly drawn) [Example 130] ?
< 50 nM

* * *

# System: MV4-11 cells
# TEST_PROTOCOL: MV4-11 6-Day Cell Growth CTG (CellTiter-Glo) Assay
# Type: cell-based
# CONDITION_SET: Homo sapiens, MV4-11, 144 h, MV4-11 cell growth CellTiter-Glo, 6 days
REPORTED_PROPERTY: IC50

Sample records with IC50:
CCN(Cc1c(F)ccc(N2CC[C@](N)(C(=O)NC3CC3)C2)c1Cn1cnc2c(N)ncnc21)C1CC1 [Example 59]: < 2000 nM
Nc1ncnc2c1ncn2Cc1c(N2CC[C@](N)(C(=O)NC3CC3)C2)ccc2ccoc12 [Example 112]: < 2000 nM
Nc1ncnc2c1ncn2Cc1c(N2CC[C@](N)(C(=O)NC3CC3)C2)cc(Cl)c(Cl)c1CN1CCOCC1 [Example 105]: < 2000 nM
COCc1c(Cl)cc(Cl)c(N2CC[C@](N)(C(=O)NC3CC3)C2)c1Cn1cnc2c(N)ncnc21 [Example 162]: 2000 to 3000 nM
Nc1ncnc2c1ncn2Cc1c(N2CC[C@](N)(C(=O)N[C@@H]3C[C@H]3CO)C2)ccc(F)c1C(F)(F)F [Example 127]: < 2000 nM

Proceed to the following item.
Record lookup: for MV4-11 cells, what IC50 belongs to Nc1ncnc2c1ncn2Cc1c(Cl)c(Cl)cc(F)c1N1CCC(N)(C(=O)NC2CC2)C1 (stereo not drawn) [Example 152] ?
< 2000 nM
